src = PubChem BioAssay AID1963837

# Test system: 843126-344-R-J1-PDC complex spheroid viability
# measurement-protocol: Anticancer human tumor 843126-344-R-J1-PDC patient-derived melanoma cell line growth inhibition [POLQ]; active means viability on the fitted dose curve at most 10% of control; inactive means the rest
# measurement-setup: second compound 10 µM; first compound 3.16 µM
Answer with one of the outcomes given here: active, inactive

Exercise: Hi, sorry to bother you, what did the test record for Nc1ccn(C2OC(CO)C(O)C2(F)F)c(=O)n1 (stereo not given) + Nc1ccc(C#CCN(C(=O)Cc2ncc(C(F)(F)F)cc2C(F)(F)F)c2ccc(F)cc2)nn1 ?
Key: inactive

Exercise: Hi, sorry to bother you, what did the test record for CC1COCCN1c1cc(C2(O)CC3CCC(C2)O3)c2cnn(-c3ccn[nH]3)c2n1 (stereo not given) + Cc1cccc(N(C)C(=O)C2C(O)CCN2c2nc(C)cc(C(F)(F)F)c2C#N)c1 ?
Key: inactive

Exercise: Hi, sorry to bother you, what did the test record for COc1cccc2c1C(=O)c1c(O)c3c(c(O)c1C2=O)CC(O)(C(=O)CO)CC3OC1CC(N)C(O)C(C)O1 (stereo not given) + COC1C(OC(N)=O)C(O)C(Oc2ccc3c(O)c(NC(=O)c4ccc(O)c(CC=C(C)C)c4)c(=O)oc3c2C)OC1(C)C ?
Key: active

Exercise: Hi, sorry to bother you, what did the test record for Nc1ccn(C2OC(CO)C(O)C2(F)F)c(=O)n1 (stereo not given) + COC1C(OC(N)=O)C(O)C(Oc2ccc3c(O)c(NC(=O)c4ccc(O)c(CC=C(C)C)c4)c(=O)oc3c2C)OC1(C)C ?
Key: inactive

Exercise: Hi, sorry to bother you, what did the test record for CC1COCCN1c1cc(C2(O)CC3CCC(C2)O3)c2cnn(-c3ccn[nH]3)c2n1 (stereo not given) + Nc1ccc(C#CCN(C(=O)Cc2ncc(C(F)(F)F)cc2C(F)(F)F)c2ccc(F)cc2)nn1 ?
Key: inactive

====

# Tested on: 843126-344-R-J1-PDC complex spheroid viability
# measurement-protocol: Anticancer human tumor 843126-344-R-J1-PDC cell line growth inhibition [POLQ]; active = viability on the fitted dose curve at most 10% of control; inactive = the rest;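 further: spheroids exposed to drugs for seven days before readout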
# measurement-setup: second compound 0.1 µM; first compound 3.16 µM
Answer with one of the outcomes given here: active, inactive

Exercise: Hi, sorry to bother you, what did the test record for CC1COCCN1c1cc(C2(S(C)(=N)=O)CC2)nc(-c2ccnc3[nH]ccc23)n1 (stereo not given) + COC1C(OC(N)=O)C(O)C(Oc2ccc3c(O)c(NC(=O)c4ccc(O)c(CC=C(C)C)c4)c(=O)oc3c2C)OC1(C)C ?
Key: inactive

Exercise: Hi, sorry to bother you, what did the test record for CC(C)n1c(=O)n(C)c2cnc3cc(F)c(-c4ccc(OCCCN5CCCCC5)nc4)cc3c21 + COC1C(OC(N)=O)C(O)C(Oc2ccc3c(O)c(NC(=O)c4ccc(O)c(CC=C(C)C)c4)c(=O)oc3c2C)OC1(C)C ?
Key: inactive

Exercise: Hi, sorry to bother you, what did the test record for Nc1ccn(C2OC(CO)C(O)C2(F)F)c(=O)n1 (stereo not given) + COC1C(OC(N)=O)C(O)C(Oc2ccc3c(O)c(NC(=O)c4ccc(O)c(CC=C(C)C)c4)c(=O)oc3c2C)OC1(C)C ?
Key: inactive

Exercise: Hi, sorry to bother you, what did the test record for COc1cc(C2c3cc4c(cc3C(OC3OC5COC(C)OC5C(O)C3O)C3COC(=O)C23)OCO4)cc(OC)c1O (stereo not given) + COC1C(OC(N)=O)C(O)C(Oc2ccc3c(O)c(NC(=O)c4ccc(O)c(CC=C(C)C)c4)c(=O)oc3c2C)OC1(C)C ?
Key: inactive

Exercise: Hi, sorry to bother you, what did the test record for O=C(Nc1ccc(O)c(NS(=O)(=O)c2ccc(F)cc2)c1)c1ccc(-c2ccccc2)cc1 + Nc1ccc(C#CCN(C(=O)Cc2ncc(C(F)(F)F)cc2C(F)(F)F)c2ccc(F)cc2)nn1 ?
Key: inactive

Exercise: Hi, sorry to bother you, what did the test record for C=CC(=O)N1CCN(c2nc(=O)n(-c3c(C)ccnc3C(C)C)c3nc(-c4c(O)cccc4F)c(F)cc23)C(C)C1 (stereo not given) + Cc1cccc(N(C)C(=O)C2C(O)CCN2c2nc(C)cc(C(F)(F)F)c2C#N)c1 ?
Key: inactive

Exercise: Hi, sorry to bother you, what did the test record for C=CC(=O)N1CCN(c2nc(=O)n(-c3c(C)ccnc3C(C)C)c3nc(-c4c(O)cccc4F)c(F)cc23)C(C)C1 (stereo not given) + COC1C(OC(N)=O)C(O)C(Oc2ccc3c(O)c(NC(=O)c4ccc(O)c(CC=C(C)C)c4)c(=O)oc3c2C)OC1(C)C ?
Key: inactive

Exercise: Hi, sorry to bother you, what did the test record for COc1ccc([C@@H](O)c2cc(-c3ncnc4cc(N5CCOCC5)ccc34)c(F)cc2Cl)nn1 + COC1C(OC(N)=O)C(O)C(Oc2ccc3c(O)c(NC(=O)c4ccc(O)c(CC=C(C)C)c4)c(=O)oc3c2C)OC1(C)C ?
Key: inactive

Exercise: Hi, sorry to bother you, what did the test record for CC(C)n1c(=O)n(C)c2cnc3cc(F)c(-c4ccc(OCCCN5CCCCC5)nc4)cc3c21 + Cc1cccc(N(C)C(=O)C2C(O)CCN2c2nc(C)cc(C(F)(F)F)c2C#N)c1 ?
Key: inactive

Exercise: Hi, sorry to bother you, what did the test record for CCCS(=O)(=O)Nc1ccc(F)c(C(=O)c2c[nH]c3ncc(-c4ccc(Cl)cc4)cc23)c1F + COC1C(OC(N)=O)C(O)C(Oc2ccc3c(O)c(NC(=O)c4ccc(O)c(CC=C(C)C)c4)c(=O)oc3c2C)OC1(C)C ?
Key: inactive

Exercise: Hi, sorry to bother you, what did the test record for C#Cc1c(F)ccc2cc(O)cc(-c3ncc4c(N5CC6CCC(C5)N6)nc(OCC56CCCN5CC(F)C6)nc4c3F)c12 (stereo not given) + Nc1ccc(C#CCN(C(=O)Cc2ncc(C(F)(F)F)cc2C(F)(F)F)c2ccc(F)cc2)nn1 ?
Key: inactive

Exercise: Hi, sorry to bother you, what did the test record for COc1ccc([C@@H](O)c2cc(-c3ncnc4cc(N5CCOCC5)ccc34)c(F)cc2Cl)nn1 + Nc1ccc(C#CCN(C(=O)Cc2ncc(C(F)(F)F)cc2C(F)(F)F)c2ccc(F)cc2)nn1 ?
Key: inactive

Exercise: Hi, sorry to bother you, what did the test record for C#Cc1c(F)ccc2cc(O)cc(-c3ncc4c(N5CC6CCC(C5)N6)nc(OCC56CCCN5CC(F)C6)nc4c3F)c12 (stereo not given) + COC1C(OC(N)=O)C(O)C(Oc2ccc3c(O)c(NC(=O)c4ccc(O)c(CC=C(C)C)c4)c(=O)oc3c2C)OC1(C)C ?
Key: inactive

Exercise: Hi, sorry to bother you, what did the test record for Nc1ccn(C2OC(CO)C(O)C2(F)F)c(=O)n1 (stereo not given) + Cc1cccc(N(C)C(=O)C2C(O)CCN2c2nc(C)cc(C(F)(F)F)c2C#N)c1 ?
Key: inactive

Exercise: Hi, sorry to bother you, what did the test record for COc1cc2cc(C(=O)CCC(=O)O)sc2cc1OC + COC1C(OC(N)=O)C(O)C(Oc2ccc3c(O)c(NC(=O)c4ccc(O)c(CC=C(C)C)c4)c(=O)oc3c2C)OC1(C)C ?
Key: inactive

Exercise: Hi, sorry to bother you, what did the test record for O=c1[nH]cc(F)c(=O)[nH]1 + Nc1ccc(C#CCN(C(=O)Cc2ncc(C(F)(F)F)cc2C(F)(F)F)c2ccc(F)cc2)nn1 ?
Key: inactive

Exercise: Hi, sorry to bother you, what did the test record for CCc1cc2c(N3CCc4c(cc(Cn5ccnc5)cc4-c4cn(C)nc4C(F)(F)F)C3=O)ccnc2c(OC)n1 + COC1C(OC(N)=O)C(O)C(Oc2ccc3c(O)c(NC(=O)c4ccc(O)c(CC=C(C)C)c4)c(=O)oc3c2C)OC1(C)C ?
Key: inactive

Exercise: Hi, sorry to bother you, what did the test record for O=C(Nc1ccc(O)c(NS(=O)(=O)c2ccc(F)cc2)c1)c1ccc(-c2ccccc2)cc1 + COC1C(OC(N)=O)C(O)C(Oc2ccc3c(O)c(NC(=O)c4ccc(O)c(CC=C(C)C)c4)c(=O)oc3c2C)OC1(C)C ?
Key: inactive

Exercise: Hi, sorry to bother you, what did the test record for CC(C)n1c(=O)n(C)c2cnc3cc(F)c(-c4ccc(OCCCN5CCCCC5)nc4)cc3c21 + Nc1ccc(C#CCN(C(=O)Cc2ncc(C(F)(F)F)cc2C(F)(F)F)c2ccc(F)cc2)nn1 ?
Key: inactive

Exercise: Hi, sorry to bother you, what did the test record for COc1cccc2c1C(=O)c1c(O)c3c(c(O)c1C2=O)CC(O)(C(=O)CO)CC3OC1CC(N)C(O)C(C)O1 (stereo not given) + Nc1ccc(C#CCN(C(=O)Cc2ncc(C(F)(F)F)cc2C(F)(F)F)c2ccc(F)cc2)nn1 ?
Key: active
